The reported numbers originate from PubChem BioAssay (NCATS).

# test protocol: Primary qHTS for inhibitors of nuclear receptor binding SET domain protein 2 (NSD2) in an RCH-ACV wild type WT cells (2C) (AID 1645877); further: nearly all actives have a fitted effect of over 70% in size
# conditions: RCH-ACV (leukaemia line) NSD2 WT (2C) viability, CellTiter-Glo, 72 h; series mostly up to 44.9 µM
Records with an inconclusive call do not appear. The source made the active and inactive calls. The call rests on the fitted dose curve; in most records, active means well fitted inhibition curve with a large enough effect; inconclusive means small, poorly fitted or top-dose-only effect; inactive means no such curve, though single readings can be large or run the other way.
Hello, when you answer, please use one of the following outcomes: true (1) = active, false (0) = inactive

Example results:
molecule: Oc1ccc([C@@H]2Oc3ccc(O)cc3[C@@H]3CCC[C@@H]32)cc1
group: true (1)
--
molecule: O=C(c1ccc(F)cc1)N1CCC[C@H](c2nc(-c3ccc(F)cc3)no2)C1
group: false (0)

Next molecule, please.
**Q:** Tell me the assay call for `c1ccc(CNc2nc(NCc3ccccc3)c3ccccc3n2)cc1` please.
**A:** true (1)
